Data provenance: ChEMBL document CHEMBL1145305

Reported inhibition values for a set of molecules
# TARGET_OR_SYSTEM: Beta-secretase 1 (Homo sapiens, UniProt P56817)
# Sequence (P56817 whole entry): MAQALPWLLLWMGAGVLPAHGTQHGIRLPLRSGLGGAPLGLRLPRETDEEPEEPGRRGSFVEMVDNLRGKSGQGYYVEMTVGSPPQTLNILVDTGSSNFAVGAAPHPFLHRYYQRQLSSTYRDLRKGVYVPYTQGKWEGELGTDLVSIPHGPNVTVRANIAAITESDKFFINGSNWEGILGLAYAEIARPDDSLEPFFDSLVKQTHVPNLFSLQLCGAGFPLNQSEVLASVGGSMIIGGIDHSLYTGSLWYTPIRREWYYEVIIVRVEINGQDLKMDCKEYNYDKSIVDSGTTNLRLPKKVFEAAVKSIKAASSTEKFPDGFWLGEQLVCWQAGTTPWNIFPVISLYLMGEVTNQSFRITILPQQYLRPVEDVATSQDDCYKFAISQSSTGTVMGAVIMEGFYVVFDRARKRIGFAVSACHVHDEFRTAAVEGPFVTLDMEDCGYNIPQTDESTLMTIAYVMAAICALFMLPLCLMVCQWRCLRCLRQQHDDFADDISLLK
# ASSAY_PROTOCOL: Inhibition of BACE1 expressed in HEK293 cells at 100 uM
# Format: cell-based
Write the number in % without appending the unit.

CC(C)C[C@H](NC(=O)[C@@H](NC(=O)[C@@H](N)CNC(=O)c1cccc(O)c1)C(C)C)C(=O)N[C@@H](Cc1ccccc1)[C@@H](O)C(=O)Nc1cccc(C(=O)O)c1
57
CC(C)C[C@H](NC(=O)[C@@H](NC(=O)[C@@H](N)CNC(=O)c1cc(O)ccc1O)C(C)C)C(=O)N[C@@H](Cc1ccccc1)[C@@H](O)C(=O)Nc1cccc(C(=O)O)c1
58
CC(C)C[C@H](NC(=O)[C@@H](NC(=O)[C@@H](N)CNC(=O)c1[nH]c(=O)[nH]c(=O)c1F)C(C)C)C(=O)N[C@@H](Cc1ccccc1)[C@@H](O)C(=O)Nc1cccc(-c2nn[nH]n2)c1
63

Which inhibition reading was recorded for the molecule CC(C)C[C@H](NC(=O)[C@@H](NC(=O)[C@@H](N)CNC(=O)c1nn[nH]n1)C(C)C)C(=O)N[C@@H](Cc1ccccc1)[C@@H](O)C(=O)Nc1cccc(-c2nn[nH]n2)c1 ?
66

Which inhibition reading was recorded for the molecule CC(C)C[C@H](NC(=O)[C@@H](NC(=O)[C@@H](N)CNC(=O)c1cc(O)cc(O)c1)C(C)C)C(=O)N[C@@H](Cc1ccccc1)[C@@H](O)C(=O)Nc1cccc(C(=O)O)c1 ?
69
